Origin of the recorded values: patent US11214578B2

- TARGET_DESC: Human MAGL (hMAGL) (Homo sapiens)
- Construct: hexahistidine; made in house; host or cells: E. coli
- Sequence (Q99685 whole entry): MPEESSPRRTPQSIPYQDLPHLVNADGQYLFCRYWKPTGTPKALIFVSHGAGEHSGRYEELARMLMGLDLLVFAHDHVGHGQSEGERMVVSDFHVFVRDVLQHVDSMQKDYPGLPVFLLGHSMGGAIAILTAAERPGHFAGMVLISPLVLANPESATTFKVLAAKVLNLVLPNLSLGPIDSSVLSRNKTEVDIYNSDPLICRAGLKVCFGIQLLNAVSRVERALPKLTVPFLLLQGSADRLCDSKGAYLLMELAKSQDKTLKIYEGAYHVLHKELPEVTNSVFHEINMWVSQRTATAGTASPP
- METHOD_NOTES: Fluorescent assay protocol for hMAGL (AHMMCE substrate)
- Assay type: biochemical
- DETAILS: recombinant human MAGL, AHMMCE substrate, 15 min preincubation; read-out: IC50 hMAGL
ENDPOINT: IC50

INSERT INTO results (molecule, observed_value) VALUES
  ('N#Cc1cccc(-c2cccc(NC(=O)N3C[C@@H]4C[C@H]3CN4Cc3cccc(-c4ccccc4)c3)c2)c1', '> 1000 nM'),
  ('NC(=O)c1cccc(-c2cccc(NC(=O)N3CCN(C4c5ccccc5-c5ccccc54)CC3)c2)c1', '> 1000 nM'),
  ('NC(=O)c1cccc(-c2cccc(NC(=O)N3CCC(c4ccccc4)CC3)c2)c1', '> 1000 nM'),
  ('CC(c1ccccc1)N1CCN(C(=O)Oc2cccc(C#N)c2)CC1 (stereo not drawn)', '> 1000 nM'),
  ('O=C(N1C[C@@H]2C[C@H]1CN2c1cccc(F)c1)n1cnc(-c2ccccc2)c1', '> 1000 nM'),
  ('CC1CN(C(=O)n2cnc(-c3ccccc3)c2)CCN1c1cccc(O)c1 (stereo not drawn)', '> 1000 nM'),
  ('O=C(Nc1cccc(N2CCS(=O)(=O)CC2)c1)N1CCN(c2ccccc2)CC1', '10 to 100 nM'),
  ('O=C(Oc1cccc(-c2cccnc2)c1)N1CC(OCc2ccc(Cl)cc2)C1', '> 1000 nM'),
  ('O=C(Nc1cccc(Oc2ccccc2)c1)N1CCN(Cc2ccc3ccccc3n2)CC1', '> 1000 nM'),
  ('O=C(N1CCN(C(c2ccc(F)cc2)c2ccc(F)cc2)CC1)n1cnc(Br)c1', '> 1000 nM'),
  ('O=C(Oc1cccc(Cl)n1)N1CCC(C(c2ccccc2)c2ccccc2)CC1', '110 to 1000 nM'),
  ('O=C(N1CCN(C(c2ccccc2)c2ccccc2)CC1)n1cnc(-c2ccccc2)c1', '> 1000 nM'),
  ('CC1CN(C(=O)n2cnc(-c3ccccc3)c2)CCN1c1cccc(OCc2ccccc2)c1 (stereo not drawn)', '> 1000 nM'),
  ('NC(=O)c1cccc(-c2cccc(NC(=O)N3CCN(Cc4ccc(-c5ccccc5)cc4)CC3)c2)c1', '> 1000 nM'),
  ('Cc1ccc(N2CCN(C(=O)n3cnc(-c4ccccc4)c3)CC2C)cc1 (stereo not drawn)', '> 1000 nM'),
  ('N#Cc1ccc(F)c(OC(=O)N2CCC(OC(c3ccccc3)c3ccccc3)CC2)c1', '110 to 1000 nM'),
  ('O=C(N1CCCCC1)N1CC(OCc2ccc(Br)cc2)C1', '10 to 100 nM'),
  ('COC(=O)c1cccc(OC(=O)N2CCC(OC(c3ccccc3)c3ccccc3)CC2)c1', '10 to 100 nM'),
  ('NC(=O)c1cccc(-c2cccc(NC(=O)N3C[C@@H]4C[C@H]3CN4Cc3ccc4ccccc4n3)c2)c1', '> 1000 nM'),
  ('N#Cc1cccc(-c2cccc(NC(=O)N3CCN(Cc4cccc(-c5ccccc5)c4)CC3)c2)c1', '> 1000 nM'),
  ('O=C(N1C[C@@H]2C[C@H]1CN2Cc1cccc(-c2ccccc2)c1)n1cnc(Br)c1', '> 1000 nM'),
  ('O=C(N1CCN(C(c2ccccc2)c2ccccc2)CC1)n1nnnc1Cc1ccccc1', '> 1000 nM'),
  ('O=C(N1CC(N2CCC(Cc3ccccc3)CC2)C1)n1cnc(-c2ccccc2)c1', '> 1000 nM'),
  ('O=C(Nc1cccnc1)N1CC(OCc2ccc(Br)cc2)C1', '> 1000 nM'),
  ('C[C@H]1CN(C(=O)Nc2cccc(-c3cccc(C(N)=O)c3)c2)CCN1Cc1ccc2ccccc2n1', '> 1000 nM'),
  ('N#Cc1cccc(OC(=O)N2CCC(=C(c3ccccc3)c3ccccc3)CC2)c1', '> 1000 nM'),
  ('N#Cc1cccc(OC(=O)N2CCC(S(=O)(=O)c3ccc(Br)cc3)CC2)c1', '10 to 100 nM'),
  ('N#Cc1cccc(OC(=O)N2CCC(OC(c3ccc(Cl)cc3)c3cccnc3Cl)CC2)c1 (stereo not drawn)', '10 to 100 nM'),
  ('CC1CN(C(=O)n2cnc(-c3ccccc3)c2)CCN1c1ccccc1 (stereo not drawn)', '> 1000 nM'),
  ('Cc1ccc(S(=O)(=O)N2CCN(C(=O)Oc3ccc(-c4ccc(F)cc4)cc3O)CC2)cc1', '10 to 100 nM');

* * *

- TARGET_DESC: ΔTM rat FAAH (Rattus norvegicus, UniProt P97612)
- Construct: Preparation of Transmembrane Domain-Deleted Rat FAAH (ΔTM rFAAH)
- Sequence (P97612 30-579 limits assumed, stated change not applied): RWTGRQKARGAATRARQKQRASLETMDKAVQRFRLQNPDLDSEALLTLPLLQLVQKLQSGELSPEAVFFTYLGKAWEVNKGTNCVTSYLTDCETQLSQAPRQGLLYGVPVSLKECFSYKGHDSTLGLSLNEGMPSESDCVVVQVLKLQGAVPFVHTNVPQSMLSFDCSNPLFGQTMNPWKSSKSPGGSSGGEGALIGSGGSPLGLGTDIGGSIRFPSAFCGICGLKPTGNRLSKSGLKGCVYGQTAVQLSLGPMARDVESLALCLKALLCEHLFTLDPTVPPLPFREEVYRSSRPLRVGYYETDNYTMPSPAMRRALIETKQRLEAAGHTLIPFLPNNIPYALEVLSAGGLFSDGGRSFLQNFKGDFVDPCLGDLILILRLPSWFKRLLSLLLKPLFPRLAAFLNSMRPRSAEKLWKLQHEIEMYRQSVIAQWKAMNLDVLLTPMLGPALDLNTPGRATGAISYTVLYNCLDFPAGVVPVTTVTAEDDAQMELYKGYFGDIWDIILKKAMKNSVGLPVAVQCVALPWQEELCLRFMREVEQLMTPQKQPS
- METHOD_NOTES: Fluorescent assay protocol for ΔTM rat FAAH (AAMCA substrate)
- DETAILS: 15 min preincubation, read-out: IC50 rFAAH
pIC50: −log10 of the molar value.
Entries and their measured pIC50 follow.
ENDPOINT: pIC50

INSERT INTO assay_data (compound, observed_value) VALUES
  ('C[C@H]1CN(C(=O)Nc2cccc(-c3cccc(C(N)=O)c3)c2)CCN1Cc1ccc2ccccc2n1', '7.00 to 8.00'),
  ('Cc1ccc(N2CCN(C(=O)n3cnc(-c4ccccc4)c3)CC2C)cc1 (stereo not shown)', '7.00 to 8.00'),
  ('NC(=O)c1cccc(-c2cccc(NC(=O)N3C[C@@H]4C[C@H]3CN4Cc3ccc4ccccc4n3)c2)c1', '< 6.00'),
  ('Cc1ccc(S(=O)(=O)N2CCN(C(=O)Oc3c(F)cccc3F)CC2)cc1', '< 6.00');

* * *

- TARGET_DESC: UniProt:O00519
- Sequence (O00519 30-579 limits assumed, stated change not applied): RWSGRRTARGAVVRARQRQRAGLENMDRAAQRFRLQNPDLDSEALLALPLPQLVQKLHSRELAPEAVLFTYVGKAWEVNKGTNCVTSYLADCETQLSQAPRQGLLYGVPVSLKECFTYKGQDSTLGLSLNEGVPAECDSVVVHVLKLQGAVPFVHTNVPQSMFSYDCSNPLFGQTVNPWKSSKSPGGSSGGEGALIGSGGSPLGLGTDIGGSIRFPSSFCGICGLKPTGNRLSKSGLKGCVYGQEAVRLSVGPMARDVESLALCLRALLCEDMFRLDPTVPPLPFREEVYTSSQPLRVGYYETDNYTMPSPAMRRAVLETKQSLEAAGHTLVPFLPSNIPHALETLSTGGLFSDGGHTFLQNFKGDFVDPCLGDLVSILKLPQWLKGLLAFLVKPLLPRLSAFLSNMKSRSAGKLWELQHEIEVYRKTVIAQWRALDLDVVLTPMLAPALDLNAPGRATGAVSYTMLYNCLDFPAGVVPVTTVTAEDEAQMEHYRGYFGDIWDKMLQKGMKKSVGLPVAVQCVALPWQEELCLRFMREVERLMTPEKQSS
- METHOD_NOTES: Fluorescent assay protocol for hFAAH
- DETAILS: human FAAH (MBP fusion, ΔTM), procedure as for rFAAH
Entries and their measured IC50 follow.
ENDPOINT: IC50

INSERT INTO results (compound, endpoint, observed_value) VALUES
  ('CC1CN(C(=O)n2cnc(-c3ccccc3)c2)CCN1c1cccc(O)c1 (stereo not shown)', 'IC50', '110 to 1000 nM'),
  ('O=C(Nc1cccnc1)N1CC(OCc2ccc(Br)cc2)C1', 'IC50', '110 to 1000 nM'),
  ('CC1CN(c2ccccc2)CCN1C(=O)n1cnc(-c2ccccc2)c1 (stereo not shown)', 'IC50', '110 to 1000 nM'),
  ('N#Cc1cccc(OC(=O)N2CCN(C(c3ccccc3)c3ccccc3)CC2)c1', 'IC50', '10 to 100 nM'),
  ('O=C(N1CC(N2CCC(c3ccccc3)CC2)C1)n1cnc2ccccc21', 'IC50', '10 to 100 nM'),
  ('C[C@H]1CN(C(=O)Nc2cccc(-c3cccc(C(N)=O)c3)c2)CCN1Cc1ccc2ccccc2n1', 'IC50', '10 to 100 nM'),
  ('O=C(Nc1cccc(Oc2ccccc2)c1)N1CCN(Cc2ccc3ccccc3n2)CC1', 'IC50', '> 1000 nM'),
  ('O=C(N1CC(N2CCC(Cc3ccccc3)CC2)C1)n1cnc(-c2ccccc2)c1', 'IC50', '10 to 100 nM'),
  ('N#Cc1cc(O)cc(OC(=O)N2CCN(C(c3ccccc3)c3ccccc3)CC2)c1', 'IC50', '110 to 1000 nM'),
  ('O=C(Oc1c(F)cccc1F)N1CCC(S(=O)(=O)c2ccc(Br)cc2)CC1', 'IC50', '> 1000 nM'),
  ('NC(=O)c1cccc(-c2cccc(NC(=O)N3CCN(Cc4cnc5ccccc5c4)CC3)c2)c1', 'IC50', '10 to 100 nM'),
  ('COC(=O)c1cccc(OC(=O)N2CCC(=C(c3ccccc3)c3ccccc3)CC2)c1', 'IC50', '10 to 100 nM'),
  ('O=C(Oc1cccc(N2CCS(=O)(=O)CC2)c1)N1CCN(Cc2cccc(Oc3ccccc3)c2)CC1', 'IC50', '110 to 1000 nM'),
  ('N#Cc1cccc(OC(=O)N2CCC(S(=O)(=O)c3ccc(Br)cc3)CC2)c1', 'IC50', '10 to 100 nM'),
  ('O=C(N1CCN(C(c2ccccc2)c2ccccc2)CC1)n1nnnc1Cc1ccccc1', 'IC50', '10 to 100 nM'),
  ('N#Cc1cccc(OC(=O)N2CCC(OC(c3ccc(Cl)cc3)c3cccnc3Cl)CC2)c1 (stereo not shown)', 'IC50', '10 to 100 nM'),
  ('O=C(N1CC(Sc2ccc(Br)cc2)C1)n1cncn1', 'IC50', '10 to 100 nM'),
  ('N#Cc1cccc(-c2cccc(NC(=O)N3CCC4(CC3)CC(=O)c3ccccc3O4)c2)c1', 'IC50', '110 to 1000 nM'),
  ('N#Cc1cccc(-c2cncc(NC(=O)N3CCC(c4ccccc4)CC3)c2)c1', 'IC50', '> 1000 nM'),
  ('NC(=O)c1cccc(-c2cccc(NC(=O)N3CCN(C4c5ccccc5-c5ccccc54)CC3)c2)c1', 'IC50', '10 to 100 nM'),
  ('N#Cc1cccc(OC(=O)N2CCN(C(c3ccccc3)C3CCCC3)CC2)c1 (stereo not shown)', 'IC50', '10 to 100 nM'),
  ('O=C1CC2(CCC(C(=O)n3cnc(Br)c3)CC2)Oc2ccccc21 (stereo not shown)', 'IC50', '10 to 100 nM'),
  ('Cc1ccc(S(=O)(=O)N2CCN(C(=O)Oc3c(F)cccc3F)CC2)cc1', 'IC50', '> 1000 nM'),
  ('C[C@H]1CN(C(=O)Nc2cccc(-c3cccc(C#N)c3)c2)CCN1Cc1ccc2ccccc2n1', 'IC50', '110 to 1000 nM'),
  ('COC(=O)c1ncn(C(=O)N2CCC(OC(c3ccc(F)cc3)c3ccc(F)cc3)CC2)n1', 'IC50', '> 1000 nM'),
  ('O=C(N1CCN(C(c2ccc(F)cc2)c2ccc(F)cc2)CC1)n1cnc(Br)c1', 'IC50', '110 to 1000 nM'),
  ('CC1CN(C(=O)n2cnc(-c3ccccc3)c2)CCN1c1cccc(OCc2ccccc2)c1 (stereo not shown)', 'IC50', '110 to 1000 nM'),
  ('N#Cc1ccc(F)c(OC(=O)N2CCC(OC(c3ccccc3)c3ccccc3)CC2)c1', 'IC50', '110 to 1000 nM');
